# measurement-target: Gal4-RORγ-LBD (Homo sapiens, UniProt P51449)
# Construct: expressed in transfected cells; host or cells: HEK-293 cells (pcDNA3.1neo plasmid)
# Sequence (P51449 269-508 limits assumed): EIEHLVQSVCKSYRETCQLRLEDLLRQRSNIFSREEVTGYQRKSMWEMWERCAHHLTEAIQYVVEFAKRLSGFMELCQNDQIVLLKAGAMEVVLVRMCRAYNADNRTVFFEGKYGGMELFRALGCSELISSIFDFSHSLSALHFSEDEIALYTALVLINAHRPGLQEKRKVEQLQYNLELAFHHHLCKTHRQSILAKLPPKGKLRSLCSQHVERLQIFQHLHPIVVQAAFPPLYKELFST
# test-details: Gal4-RORγ Luciferase Reporter Assay in HEK-293T Cells
# Assay type: cell-based
# measurement-setup: HEK-293 cells, luciferase reporter, with 2 μM ursolic acid
Hi there, I'd appreciate the recorded EC50 for every entry that follows.

INSERT INTO results (compound, value) VALUES
  ('COc1cccc(-c2ccc3c(c2)N(S(=O)(=O)c2ccc(F)c(OC)c2)C[C@H](CNC(=O)C(C)(C)O)O3)c1 [Compound 30S]', '< 0.5 µM'),
  ('COc1ccc(Cl)cc1-c1ccc2c(c1)N(S(=O)(=O)c1cccc(C(F)(F)F)c1)C[C@H](CCC(=O)O)O2', '< 0.5 µM'),
  ('CNc1cccc(-c2ccc3c(c2)N(S(=O)(=O)c2cccc(C(F)(F)F)c2)C[C@H](CCC(=O)O)O3)n1', '0.5 to 5 µM'),
  ('O=C(O)[C@H]1CCCN1C(=O)NCC[C@H]1CN(S(=O)(=O)c2cccc(C(F)(F)F)c2)c2cc(-c3cc(F)ccc3F)ccc2O1 [Compound 23U]', '< 0.5 µM'),
  ('CC(C)(CC[C@H]1CN(S(=O)(=O)c2cccc(C(F)(F)F)c2)c2cc(-c3cc(F)ccc3F)ccc2O1)C(=O)O [Compound 32A]', '< 0.5 µM');

Please go through the list and note EC50 for each compound.
1. Cc1nnc(-c2ccc3c(c2)N(S(=O)(=O)c2cccc(C(F)(F)F)c2)C[C@H](CCC(=O)O)O3)s1
2. CN(C)c1cncc(-c2ccc3c(c2)N(S(=O)(=O)c2cccc(C(F)(F)F)c2)C[C@H](CCC(=O)O)O3)n1
3. O=C(O)C1CCN(C(=O)CC[C@H]2CN(S(=O)(=O)c3cccc(C(F)(F)F)c3)c3cc(-c4cccc(C(F)(F)F)n4)cc(F)c3O2)CC1 [Compound 23E]
4. CC(C)(C[C@H]1CN(S(=O)(=O)c2cccc(C(F)(F)F)c2)c2cc(-c3cc(F)ccc3Cl)ccc2O1)C(=O)O [Compound 32I]
5. O=C(NC[C@H]1CN(S(=O)(=O)c2cccc(C(F)(F)F)c2)c2cc(-c3cc(F)ccc3F)ccc2O1)C1CCCC1 [Compound 30AZ]
6. Cc1ccc(F)c(-c2ccc3c(c2)N(S(=O)(=O)c2cccc(C(F)(F)F)c2)C[C@H](CCC(=O)O)O3)c1
7. O=c1[nH]nc(CC[C@H]2CN(S(=O)(=O)c3cccc(C(F)(F)F)c3)c3cc(-c4cccc(C(F)(F)F)n4)ccc3O2)o1 [Compound 28A]

Response line:
1: > 10 µM; 2: < 0.5 µM; 3: < 0.5 µM; 4: 0.5 to 5 µM; 5: < 0.5 µM; 6: < 0.5 µM; 7: < 0.5 µM

Prompt line: Specify EC50 for `O=S(=O)(c1cccc(C(F)(F)F)c1)N1C[C@H]([C@H](O)CO)Oc2ccc(-c3cc(F)ccc3F)cc21` and stop.
Response line: < 0.5 µM
